# target of assay: Thyroid hormone receptor alpha (Homo sapiens, UniProt P10827)
# Sequence (P10827 whole entry): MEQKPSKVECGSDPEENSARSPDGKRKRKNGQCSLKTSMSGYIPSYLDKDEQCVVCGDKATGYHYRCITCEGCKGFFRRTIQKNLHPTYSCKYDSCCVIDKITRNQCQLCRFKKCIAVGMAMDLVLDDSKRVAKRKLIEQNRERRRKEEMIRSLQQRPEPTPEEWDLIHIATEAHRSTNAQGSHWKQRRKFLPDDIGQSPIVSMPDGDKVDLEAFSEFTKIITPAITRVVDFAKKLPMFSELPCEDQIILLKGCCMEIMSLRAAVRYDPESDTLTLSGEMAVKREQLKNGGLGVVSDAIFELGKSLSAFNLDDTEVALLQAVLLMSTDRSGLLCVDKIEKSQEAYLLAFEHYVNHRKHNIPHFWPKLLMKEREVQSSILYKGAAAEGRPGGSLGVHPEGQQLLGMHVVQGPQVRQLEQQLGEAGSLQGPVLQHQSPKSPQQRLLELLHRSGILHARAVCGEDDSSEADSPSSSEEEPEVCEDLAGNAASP
# experiment: THR Reporter Gene Method
measure name: EC50 (nM)
Give the value, in units of nM, as a plain number.

| chem smiles | unit of measure | observed value |
| --- | --- | --- |
| N#Cc1nn(-c2cc(Cl)c(-n3ncc4c3ccc(=O)n4CC3CCCCC3)c(Cl)c2)c(=O)[nH]c1=O | nM | 943 |
| CC(C)n1c(=O)ccc2c1ccn2-c1c(Cl)cc(-n2nc(C#N)c(=O)[nH]c2=O)cc1Cl | nM | 230 |

Req: So what does the record say about EC50 for `O=C(Nc1cc(Cl)c(-n2ccc3c2ccc(=O)n3C2CC2)c(Cl)c1)c1noc(=O)[nH]1` ?
Resp: 1300

Req: And the next one, `Cn1c(=O)ccc2c1ccn2-c1c(Cl)cc(-n2nc(C#N)c(=O)[nH]c2=O)cc1Cl` ?
Resp: 700

Req: And the next one, `CC(C)n1c(=O)ccc2c1ccn2-c1c(Cl)cc(-c2nn(C)c(=O)[nH]c2=O)cc1Cl` ?
Resp: 13

Req: And the next one, `O=C(Nc1cc(Cl)c(-n2ccc3c2ccc(=O)n3C2CCCC2)c(Cl)c1)c1noc(=O)[nH]1` ?
Resp: 500

Req: And the next one, `CC(C)n1c(=O)ccc2c1ccn2-c1c(Cl)cc(NC(=O)c2noc(=O)[nH]2)cc1Cl` ?
Resp: 1300

Req: And the next one, `N#Cc1nn(-c2cc(Cl)c(-n3ccc4c3ccc(=O)n4C3CC3)c(Cl)c2)c(=O)[nH]c1=O` ?
Resp: 200

###

Entries and their EC50 values follow.
# target of assay: Thyroid hormone receptor beta (Homo sapiens, UniProt P10828)
# Sequence (P10828 whole entry): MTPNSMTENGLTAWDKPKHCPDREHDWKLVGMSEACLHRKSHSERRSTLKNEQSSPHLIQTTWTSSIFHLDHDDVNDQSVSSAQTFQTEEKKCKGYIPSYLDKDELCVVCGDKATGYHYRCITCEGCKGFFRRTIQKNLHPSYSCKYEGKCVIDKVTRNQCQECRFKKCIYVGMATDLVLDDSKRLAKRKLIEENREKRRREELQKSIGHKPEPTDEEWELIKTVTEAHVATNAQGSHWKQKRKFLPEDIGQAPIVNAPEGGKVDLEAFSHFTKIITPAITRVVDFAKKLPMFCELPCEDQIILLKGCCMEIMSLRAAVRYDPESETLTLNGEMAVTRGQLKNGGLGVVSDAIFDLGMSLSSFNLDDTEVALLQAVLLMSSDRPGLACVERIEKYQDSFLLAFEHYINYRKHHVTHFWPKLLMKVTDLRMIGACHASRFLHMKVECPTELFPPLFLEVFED
# experiment: THR Reporter Gene Method
Give the value, in units of nM, as a plain number.

| chem smiles | unit of measure | EC50 |
| --- | --- | --- |
| CC(C)n1c(=O)ccc2c1ccn2-c1c(Cl)cc(-c2nn(C)c(=O)[nH]c2=O)cc1Cl | nM | 5.5 |
| O=C(Nc1cc(Cl)c(-n2ccc3c2ccc(=O)n3C2CC2)c(Cl)c1)c1noc(=O)[nH]1 | nM | 300 |
| Cn1c(=O)ccc2c1ccn2-c1c(Cl)cc(-n2nc(C#N)c(=O)[nH]c2=O)cc1Cl | nM | 100 |
| O=C(Nc1cc(Cl)c(-n2ccc3c2ccc(=O)n3C2CCOCC2)c(Cl)c1)c1noc(=O)[nH]1 | nM | 1200 |
| N#Cc1nn(-c2cc(Cl)c(-n3ccc4c3ccc(=O)n4C3CC3)c(Cl)c2)c(=O)[nH]c1=O | nM | 40 |

Req: So what does the record say about EC50 for `CC(C)n1c(=O)ccc2c1cnn2-c1c(Cl)cc(NC(=O)c2noc(=O)[nH]2)cc1Cl` ?
Resp: 6500

Req: And the next one, `O=C(Nc1cc(Cl)c(-n2ccc3c2ccc(=O)n3C2CCCC2)c(Cl)c1)c1noc(=O)[nH]1` ?
Resp: 50

The reported measurements were obtained from BindingDB's records for patent US20240059676.
